# System: T-47D spheroids with HUVEC/MSC, viability
# assay.info: Anticancer human tumor T-47D cell line growth inhibition [PI3K];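 note: spheroids exposed to agents for seven days before reading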;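 for viability, T/C: percent of DMSO vehicle control luminescence so 100% = untreated growth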
# condition.set: second compound 0.316 µM; first compound 0.1 µM; stronger effect = lower value
For each of the compounds below, state its viability, T/C.
Just the number in %, nothing appended.

Specify viability, T/C for CC1(C)CCC(CN2CCN(c3ccc(C(=O)NS(=O)(=O)c4ccc(NCC5CCOCC5)c([N+](=O)[O-])c4)c(Oc4cnc5[nH]ccc5c4)c3)CC2)=C(c2ccc(Cl)cc2)C1 + CC(Nc1ccc2c(c1)OCCn1cc(N3C(=O)OCC3C(F)F)nc1-2)C(N)=O and stop.
79.2

Specify viability, T/C for CC1(C)CCC(Nc2ncc(C(F)(F)F)c(-c3c[nH]c4c(P(C)(C)=O)c(C#N)ccc34)n2)CN1 (stereo not drawn) + COc1c(OCCCN2CCOCC2)ccc2c3n(c(=NC(=O)c4cnc(N)nc4)nc12)CCN3 and stop.
24.4

Specify viability, T/C for CC(=O)c1c(C)c2cnc(Nc3ccc(N4CCNCC4)cn3)nc2n(C2CCCC2)c1=O + COc1c(OCCCN2CCOCC2)ccc2c3n(c(=NC(=O)c4cnc(N)nc4)nc12)CCN3 and stop.
13.6

====

# System: T-47D spheroids with HUVEC/MSC, viability
# assay.info: Anticancer human tumor T-47D cell line growth inhibition [PI3K];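 note: spheroids exposed to agents for seven days before reading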;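 for viability, T/C: percent of DMSO vehicle control luminescence so 100% = untreated growth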
# condition.set: second compound 0.00316 µM; first compound 0.0316 µM; stronger effect = lower value
recorded.metric: viability, T/C

Specify viability, T/C for CC(C)NCC(C(=O)N1CCN(c2ncnc3c2C(C)CC3O)CC1)c1ccc(Cl)cc1 (centres undefined) + COc1c(OCCCN2CCOCC2)ccc2c3n(c(=NC(=O)c4cnc(N)nc4)nc12)CCN3 and stop.
92.8%

Specify viability, T/C for CC1(C)CCC(CN2CCN(c3ccc(C(=O)NS(=O)(=O)c4ccc(NCC5CCOCC5)c([N+](=O)[O-])c4)c(Oc4cnc5[nH]ccc5c4)c3)CC2)=C(c2ccc(Cl)cc2)C1 + COc1c(OCCCN2CCOCC2)ccc2c3n(c(=NC(=O)c4cnc(N)nc4)nc12)CCN3 and stop.
117%

Specify viability, T/C for CC1(C)CCC(CN2CCN(c3ccc(C(=O)NS(=O)(=O)c4ccc(NCC5CCOCC5)c([N+](=O)[O-])c4)c(Oc4cnc5[nH]ccc5c4)c3)CC2)=C(c2ccc(Cl)cc2)C1 + CC(Nc1ccc2c(c1)OCCn1cc(N3C(=O)OCC3C(F)F)nc1-2)C(N)=O and stop.
101%

Specify viability, T/C for Cn1ncnc1[C@H]1c2n[nH]c(=O)c3cc(F)cc(c23)N[C@@H]1c1ccc(F)cc1 + CC(Nc1ccc2c(c1)OCCn1cc(N3C(=O)OCC3C(F)F)nc1-2)C(N)=O and stop.
96.3%

Specify viability, T/C for C=CC(=O)N1CCN(c2nc(=O)n(-c3c(C)ccnc3C(C)C)c3nc(-c4c(O)cccc4F)c(F)cc23)C(C)C1 (centres undefined) + COc1c(OCCCN2CCOCC2)ccc2c3n(c(=NC(=O)c4cnc(N)nc4)nc12)CCN3 and stop.
100%

Specify viability, T/C for C[C@@H](NC(=O)c1ncnc(N)c1Cl)c1ncc(C(=O)Nc2cc(C(F)(F)F)c(Cl)cn2)s1 + CC(Nc1ccc2c(c1)OCCn1cc(N3C(=O)OCC3C(F)F)nc1-2)C(N)=O and stop.
110%

Specify viability, T/C for CNC(=O)c1ccc(N2C(=S)N(c3ccc(C#N)c(C(F)(F)F)c3)C(=O)C2(C)C)cc1F + CC(Nc1ccc2c(c1)OCCn1cc(N3C(=O)OCC3C(F)F)nc1-2)C(N)=O and stop.
120%

Specify viability, T/C for C#Cc1c(F)ccc2cc(O)cc(-c3ncc4c(N5CC6CCC(C5)N6)nc(OCC56CCCN5CC(F)C6)nc4c3F)c12 (centres undefined) + COc1c(OCCCN2CCOCC2)ccc2c3n(c(=NC(=O)c4cnc(N)nc4)nc12)CCN3 and stop.
102%

Specify viability, T/C for C#Cc1c(F)ccc2cc(O)cc(-c3ncc4c(N5CC6CCC(C5)N6)nc(OCC56CCCN5CC(F)C6)nc4c3F)c12 (centres undefined) + CC(Nc1ccc2c(c1)OCCn1cc(N3C(=O)OCC3C(F)F)nc1-2)C(N)=O and stop.
96.3%

Specify viability, T/C for CC(Cn1ccc(-c2ccc(C#N)c(Cl)c2)n1)NC(=O)c1cc(C(C)O)[nH]n1 (centres undefined) + CC(Nc1ccc2c(c1)OCCn1cc(N3C(=O)OCC3C(F)F)nc1-2)C(N)=O and stop.
92.5%

Specify viability, T/C for CC1(C)CCC(Nc2ncc(C(F)(F)F)c(-c3c[nH]c4c(P(C)(C)=O)c(C#N)ccc34)n2)CN1 (centres undefined) + COc1c(OCCCN2CCOCC2)ccc2c3n(c(=NC(=O)c4cnc(N)nc4)nc12)CCN3 and stop.
70.8%

Specify viability, T/C for Cn1ncnc1[C@H]1c2n[nH]c(=O)c3cc(F)cc(c23)N[C@@H]1c1ccc(F)cc1 + COc1c(OCCCN2CCOCC2)ccc2c3n(c(=NC(=O)c4cnc(N)nc4)nc12)CCN3 and stop.
109%

Specify viability, T/C for Cn1nccc1Nc1nccc(-c2ccn(C(CO)c3ccc(Cl)c(F)c3)c(=O)c2)n1 (centres undefined) + CC(Nc1ccc2c(c1)OCCn1cc(N3C(=O)OCC3C(F)F)nc1-2)C(N)=O and stop.
98.6%

Specify viability, T/C for Cn1ncc(Cl)c1-c1cc(C(=O)NC(CN)Cc2cccc(F)c2)sc1Cl (centres undefined) + CC(Nc1ccc2c(c1)OCCn1cc(N3C(=O)OCC3C(F)F)nc1-2)C(N)=O and stop.
91.4%

Specify viability, T/C for Cn1nccc1Nc1nccc(-c2ccn(C(CO)c3ccc(Cl)c(F)c3)c(=O)c2)n1 (centres undefined) + COc1c(OCCCN2CCOCC2)ccc2c3n(c(=NC(=O)c4cnc(N)nc4)nc12)CCN3 and stop.
107%

Specify viability, T/C for CCCS(=O)(=O)Nc1ccc(F)c(C(=O)c2c[nH]c3ncc(-c4ccc(Cl)cc4)cc23)c1F + CC(Nc1ccc2c(c1)OCCn1cc(N3C(=O)OCC3C(F)F)nc1-2)C(N)=O and stop.
99.3%

Specify viability, T/C for CC(Cn1ccc(-c2ccc(C#N)c(Cl)c2)n1)NC(=O)c1cc(C(C)O)[nH]n1 (centres undefined) + COc1c(OCCCN2CCOCC2)ccc2c3n(c(=NC(=O)c4cnc(N)nc4)nc12)CCN3 and stop.
89%

Specify viability, T/C for CCCS(=O)(=O)Nc1ccc(F)c(C(=O)c2c[nH]c3ncc(-c4ccc(Cl)cc4)cc23)c1F + COc1c(OCCCN2CCOCC2)ccc2c3n(c(=NC(=O)c4cnc(N)nc4)nc12)CCN3 and stop.
104%

Specify viability, T/C for CC1(C)CCC(Nc2ncc(C(F)(F)F)c(-c3c[nH]c4c(P(C)(C)=O)c(C#N)ccc34)n2)CN1 (centres undefined) + CC(Nc1ccc2c(c1)OCCn1cc(N3C(=O)OCC3C(F)F)nc1-2)C(N)=O and stop.
66.4%

====

# Tested on: T-47D spheroids with HUVEC/MSC, viability
# assay.info: Anticancer human tumor T-47D cell line growth inhibition [PI3K];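 note: spheroids exposed to agents for seven days before reading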
# condition.set: compound alone; run of 04/25/2023
recorded.metric: IC50

Specify IC50 for CC(Nc1ncnc2nc[nH]c12)c1cc2cccc(Cl)c2c(=O)n1-c1ccccc1 (configuration not stated) and stop.
> 10 µM

Specify IC50 for `COc1c(OCCCN2CCOCC2)ccc2c3n(c(=NC(=O)c4cnc(N)nc4)nc12)CCN3` and stop.
86.9 nM [middle of 8 runs]

====

# Tested on: T-47D spheroids with HUVEC/MSC, viability
# assay.info: Anticancer human tumor T-47D cell line growth inhibition [PI3K];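 note: spheroids exposed to agents for seven days before reading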;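 for viability, T/C: percent of DMSO vehicle control luminescence so 100% = untreated growth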
# condition.set: second compound 0.01 µM; first compound 3.16 µM; stronger effect = lower value
Entries whose viability, T/C is below 70% take t; entries at or above 70% take f.

Report whether reported viability, T/C is lower than 70% (strictly) for CC1(C)CCC(CN2CCN(c3ccc(C(=O)NS(=O)(=O)c4ccc(NCC5CCOCC5)c([N+](=O)[O-])c4)c(Oc4cnc5[nH]ccc5c4)c3)CC2)=C(c2ccc(Cl)cc2)C1 + COc1c(OCCCN2CCOCC2)ccc2c3n(c(=NC(=O)c4cnc(N)nc4)nc12)CCN3
f

Report whether reported viability, T/C is lower than 70% (strictly) for CC(C)NCC(C(=O)N1CCN(c2ncnc3c2C(C)CC3O)CC1)c1ccc(Cl)cc1 (stereo not given) + COc1c(OCCCN2CCOCC2)ccc2c3n(c(=NC(=O)c4cnc(N)nc4)nc12)CCN3
t

Report whether reported viability, T/C is lower than 70% (strictly) for Cn1nccc1Nc1nccc(-c2ccn(C(CO)c3ccc(Cl)c(F)c3)c(=O)c2)n1 (stereo not given) + CC(Nc1ccc2c(c1)OCCn1cc(N3C(=O)OCC3C(F)F)nc1-2)C(N)=O
f

Report whether reported viability, T/C is lower than 70% (strictly) for CC(C)NCC(C(=O)N1CCN(c2ncnc3c2C(C)CC3O)CC1)c1ccc(Cl)cc1 (stereo not given) + CC(Nc1ccc2c(c1)OCCn1cc(N3C(=O)OCC3C(F)F)nc1-2)C(N)=O
t
